- tested-target: Endonuclease 8-like 2 (Homo sapiens);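 note: fluorescence at 594 nm reports NEIL2 cutting and release of a quenched double-stranded DNA oligo substrate, reduced signal read as inhibition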
- condition-description: Compound Concentration 10.0 uM, Hit No
- Description: Inhibition of NEIL2 by quantifying inhibition of NEIL2-mediated cleavage and dissociation of quenched duplex DNA oligonucleotides, measured as fluorescence at 594 nm.
Reported inhibition values are given for each entry in this list.
Entry format: amount then unit.

Below: 5 molecules and their reported inhibition.
molecule	result
CCO[C@H](COc1ccc(C(F)(F)F)cc1)CSc1ccc(OCC(=O)O)c(C)c1	3.59%
C[C@H](c1ccc(F)cc1)N(Cc1ccc(Cl)c(C(=O)O)c1)C(=O)c1cnc2ccccc2c1	-8.14%
CC(C)C(=O)Nc1n[nH]c2cc(-c3cccc(NS(=O)(=O)C4CC4)c3)ccc12	0.236%
Cc1c(F)cccc1[C@H]1COC(N)=N1	-0.86%
CC[C@H]1OC(=O)[C@H](C)[C@@H](O[C@H]2C[C@@](C)(OC)[C@@H](O)[C@H](C)O2)[C@H](C)[C@@H](O[C@@H]2O[C@H](C)C[C@H](N(C)C)[C@H]2O)[C@@]2(C)CC(C)=C(O2)[C@H](C)[C@@H](O)[C@]1(C)O	4.76%

[Q] Entry under review: OC[C@H]1O[C@@H](n2cnc3c(NC4CCCC4)ncnc32)[C@H](O)[C@@H]1O . Reported inhibition?
[A] 11.2%

[Q] Entry under review: O=C(c1cc2c(cc1F)OC(c1ccc(F)cc1)(c1ccc(Cl)cc1Cl)O2)N1CCOCC1 (stereo not drawn) . Reported inhibition?
[A] 8.5%

[Q] Entry under review: Fc1ccc(-c2c3cccc(C(F)(F)F)c3nn2Cc2ccc(F)cc2Cl)cc1 . Reported inhibition?
[A] -0.489%

----------
Reported inhibition values are given for each entry in this list.
- tested-target: Uracil-DNA glycosylase (Homo sapiens);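 note: UNG excision on a quenched double-stranded DNA oligo probe, with APE1 added for strand incision and turnover, read as fluorescence at 594 nm as strands separate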
- condition-description: Compound Concentration 10.0 uM, Hit No
- Description: Inhibition of UNG by quantifying inhibition of UNG-mediated cleavage and dissociation of quenched duplex DNA oligonucleotides, measured as fluorescence at 594 nm. To generate a functional strand incision and increase turn-over this assay is coupled to APE1.
Field format: number, assumed %, no unit text.

molecule	numeric-result
CCCCCCCCCCCCCCCCOC[C@H](COP(=O)([O-])OCC[N+](C)(C)C)OC(C)=O	-5.53
CC(C)OC(=O)C1=CN(C(=O)c2ccc(F)c(F)c2)CC(C)(C)c2c1[nH]c1ccccc21	5.72
CNC(=O)c1ccc(Nc2ncc(C(F)(F)F)c(NCc3nccnc3N(C)S(C)(=O)=O)n2)cc1	3.52

[Q] Entry under review: CCOc1ccc(-n2c([C@@H](C)N(Cc3cccnc3)C(=O)Cc3ccc(F)c(C(F)(F)F)c3)nc3ncccc3c2=O)cc1 . Reported inhibition?
[A] -5.43

[Q] Entry under review: O=C(O)c1ccc2c(c1)nc(Nc1cccc(Cl)c1)c1ccncc12 . Reported inhibition?
[A] -6.1

[Q] Entry under review: CCOC(=O)c1ccc(N2C(=O)C(O)=C(C(=O)c3ccc(OC)cc3)C2c2ccc(F)cc2)cc1 (stereo not given) . Reported inhibition?
[A] 1.33

----------
- tested-target: N-glycosylase/DNA lyase (Homo sapiens) (UniProt O15527);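 note: OGG1 cleavage of a quenched duplex DNA oligonucleotide, coupled to APE1 for strand incision, read as fluorescence at 594 nm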
- Sequence (O15527 whole entry): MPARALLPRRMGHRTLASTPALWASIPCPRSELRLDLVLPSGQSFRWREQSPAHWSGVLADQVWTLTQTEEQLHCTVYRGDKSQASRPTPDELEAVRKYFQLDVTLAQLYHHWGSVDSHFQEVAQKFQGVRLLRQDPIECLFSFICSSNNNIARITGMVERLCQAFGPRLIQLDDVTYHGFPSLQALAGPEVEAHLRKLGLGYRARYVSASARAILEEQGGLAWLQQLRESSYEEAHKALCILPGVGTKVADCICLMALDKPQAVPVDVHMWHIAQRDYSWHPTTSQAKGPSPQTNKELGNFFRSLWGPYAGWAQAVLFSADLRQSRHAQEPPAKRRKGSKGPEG
- condition-description: Compound Concentration 10.0 uM, Hit No
- Description: Inhibition of OGG1 by quantifying inhibition of OGG1-mediated cleavage and dissociation of quenched duplex DNA oligonucleotides, measured as fluorescence at 594 nm. To generate a functional strand incision and increase turn-over this assay is coupled to APE1.
metric: inhibition

Below: 5 compounds and their reported inhibition.
compound	inhibition
Cc1c(OCc2cccc(-c3ccc(C(=O)O)cc3)c2)cc2c(c1C)C(=O)C(C1CCCC1)C2 (configuration not stated)	0.771%
Cc1cc(OCCCS(C)(=O)=O)cc(C)c1-c1cccc(COc2ccc3c(c2)OC[C@H]3CC(=O)O)c1	18.3%
C[C@H](NC(=O)Nc1cc2[nH]ncc2c(CO)n1)c1ccccn1	0.354%
COc1ccc(CC[C@@H](OC(=O)[C@@H]2CCCCN2C(=O)[C@H](c2cc(OC)c(OC)c(OC)c2)C2CCCCC2)c2cccc(OCCN3CCOCC3)c2)cc1OC	-4.59%
N#Cc1c(Oc2cccc(OS(=O)(=O)CCCC(F)(F)F)c2)cccc1C(F)(F)F	-7.69%

[Q] Entry under review: O=C(O)c1ccnc(N2CC(O)(c3ccc(OCc4c(-c5c(Cl)cccc5Cl)noc4C4CC4)cc3Cl)C2)c1 . Reported inhibition?
[A] 35.5%

[Q] Entry under review: Cc1cccc(NC(=O)CN2CCC(c3ccccn3)CC2)c1 . Reported inhibition?
[A] 0.0304%

[Q] Entry under review: Nc1nc2cc(-c3cc(Cl)ccc3Oc3cc(F)c(S(=O)(=O)Nc4ncns4)cc3F)ccc2[nH]1 . Reported inhibition?
[A] -2.14%

[Q] Entry under review: N#Cc1ccc2[nH]cc(CCCCN3CCN(c4ccc5oc(C(N)=O)cc5c4)CC3)c2c1 . Reported inhibition?
[A] -2.53%

[Q] Entry under review: CCC[C@@H]1CNCc2c1[nH]c(=O)c(C#N)c2N1CCC2(CC1)CC2 . Reported inhibition?
[A] 27.9%

----------
Reported inhibition values are given for each entry in this list.
- tested-target: Single-strand selective monofunctional uracil DNA glycosylase (Homo sapiens) (UniProt Q53HV7);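 note: enzymatic SMUG1 assay coupled with APE1, reading fluorescence at 594 nm released when a quenched double-stranded DNA oligonucleotide substrate is cleaved and separated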
- Sequence (Q53HV7 whole entry): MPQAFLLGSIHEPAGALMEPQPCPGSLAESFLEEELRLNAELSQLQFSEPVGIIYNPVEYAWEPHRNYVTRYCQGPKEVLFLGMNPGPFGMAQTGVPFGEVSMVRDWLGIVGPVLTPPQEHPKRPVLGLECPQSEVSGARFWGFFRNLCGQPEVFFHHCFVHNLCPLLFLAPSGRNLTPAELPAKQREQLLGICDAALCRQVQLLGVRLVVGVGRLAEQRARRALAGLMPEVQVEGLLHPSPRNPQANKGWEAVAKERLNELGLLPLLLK
- condition-description: Compound Concentration 10.0 uM, Hit No
- Description: Inhibition of SMUG1 by quantifying inhibition of SMUG1-mediated cleavage and dissociation of quenched duplex DNA oligonucleotides, measured as fluorescence at 594 nm. To generate a functional strand incision and increase turn-over this assay is coupled to APE1.
Field format: number, assumed %, no unit text.

Below: 4 compounds and their reported inhibition.
line-notation	units	inhibition
Cn1cnc2c(F)c(Nc3ccc(Br)cc3Cl)c(C(=O)NOCCO)cc21	%	16.2
NS(=O)(=O)c1cc(NC(=O)Cc2ccccc2)ccc1Oc1cccc(Cl)c1	%	25.9
CN(CCOc1ccc(C[C@H](Nc2ccccc2C(=O)c2ccccc2)C(=O)O)cc1)c1ccccn1	%	8.44
Cn1nc(C(F)(F)F)cc1-c1cnc(N2CCc3cc(S(=O)(=O)Nc4c(F)cc(Cl)cc4F)cc(N4CCCC4=O)c32)nc1	%	9.91

Consider the record given below.
[Q] Entry under review: C[C@]1(C(=O)N(CCCC(=O)O)Cc2cccc(Cl)c2)CCN1C(=O)c1csc2ccccc12 . Reported inhibition?
[A] 7.04

----------
- tested-target: Adenine DNA glycosylase (Homo sapiens);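 note: human MUTYH activity read as 594 nm fluorescence from cleavage and release of a quenched DNA duplex, coupled with APE1 for strand incision, lower signal meaning inhibition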
- condition-description: Compound Concentration 10.0 uM, Hit No
- Description: Inhibition of MUTYH by quantifying inhibition of MUTYH-mediated cleavage and dissociation of quenched duplex DNA oligonucleotides, measured as fluorescence at 594 nm. To generate a functional strand incision and increase turn-over this assay is coupled to APE1.
metric: inhibition (%)
Field format: number, assumed %, no unit text.

line-notation	metric	numeric-result
C[C@@H]1C[C@H](C)CN(c2ncc(Cl)c(Nc3ccc4c(c3)cc(OC(C)(C)C(=O)O)c(=O)n4C)n2)C1	inhibition	18.2

[Q] Entry under review: Cn1nc(C(F)(F)F)cc1-c1cnc(N2CCc3cc(S(=O)(=O)Nc4c(F)cc(Cl)cc4F)cc(N4CCCC4=O)c32)nc1 . Reported inhibition?
[A] 17.9

[Q] Entry under review: CC(C)(O)c1ccc2c(c1)ncn2-c1cccc(-c2ccccc2C#N)c1 . Reported inhibition?
[A] -2.7

[Q] Entry under review: O=C(O)c1cc(-c2ccc(C3CCNCC3)cc2)c2ccc(-c3ccc(C(F)(F)F)cc3)cc2c1 . Reported inhibition?
[A] 10.9

----------
- tested-target: Methyl-CpG-binding domain protein 4 (Homo sapiens) (UniProt O95243);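 note: MBD4 activity read as fluorescence at 594 nm from cleavage and release of a quenched duplex DNA oligonucleotide, with APE1 coupled to incise the strand and raise turnover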
- Sequence (O95243 whole entry, the tested form may be a part): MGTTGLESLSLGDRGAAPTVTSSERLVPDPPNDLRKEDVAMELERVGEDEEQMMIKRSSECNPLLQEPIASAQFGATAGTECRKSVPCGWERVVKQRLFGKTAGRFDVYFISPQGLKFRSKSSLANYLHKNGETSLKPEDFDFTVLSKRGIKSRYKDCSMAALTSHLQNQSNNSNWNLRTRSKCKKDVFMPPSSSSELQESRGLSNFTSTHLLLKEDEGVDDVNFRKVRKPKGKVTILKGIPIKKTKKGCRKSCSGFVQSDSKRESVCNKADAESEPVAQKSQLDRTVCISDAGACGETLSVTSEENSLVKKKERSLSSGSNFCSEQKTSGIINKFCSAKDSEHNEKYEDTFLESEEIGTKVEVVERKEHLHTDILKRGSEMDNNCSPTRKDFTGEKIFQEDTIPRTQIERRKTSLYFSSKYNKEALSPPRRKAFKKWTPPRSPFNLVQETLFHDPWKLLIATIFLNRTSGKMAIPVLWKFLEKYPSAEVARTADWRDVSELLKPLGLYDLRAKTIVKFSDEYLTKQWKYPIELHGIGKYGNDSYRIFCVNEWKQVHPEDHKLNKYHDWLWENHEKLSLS
- condition-description: Compound Concentration 10.0 uM, Hit No
- Description: Inhibition of MBD4 by quantifying inhibition of MBD4-mediated cleavage and dissociation of quenched duplex DNA oligonucleotides, measured as fluorescence at 594 nm. To generate a functional strand incision and increase turn-over this assay is coupled to APE1.
Reported inhibition values are given for each entry in this list.
Field format: number, assumed %, no unit text.

Below: 4 compounds and their reported inhibition.
line-notation	tested-target	inhibition / %
O=c1cc(-c2cc(F)c(Cl)nc2Cl)[nH]c2c(-c3ccccc3)c(C(F)(F)F)nn12	Methyl-CpG-binding domain protein 4 (Homo sapiens) (UniProt O95243)	66.3
CN(C)CC#Cc1ccc(OCCCc2sc(N3CCc4cccc(C(=O)Nc5nc6ccccc6s5)c4C3)nc2C(=O)O)c(F)c1	Methyl-CpG-binding domain protein 4 (Homo sapiens) (UniProt O95243)	47.6
CO[C@@H](C)c1c(Nc2ccc([C@H](N(C)C(=O)C3CCS(=O)(=O)CC3)C(F)(F)F)cc2)cnc2cc(Cl)nn12	Methyl-CpG-binding domain protein 4 (Homo sapiens) (UniProt O95243)	77.6
COc1cc(N(C)c2ccnc3ccc(C(F)(F)F)cc23)cc(OC)c1OC	Methyl-CpG-binding domain protein 4 (Homo sapiens) (UniProt O95243)	5.39

Consider the record given below.
[Q] Entry under review: CCCCCCCCCCCCCCC[C@@H](O)[C@@H](N)COP(=O)(O)O . Reported inhibition?
[A] -8.45

----------
- tested-target: Endonuclease 8-like 1 (Homo sapiens) (UniProt Q96FI4);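 note: fluorescence at 594 nm from quenched duplex DNA oligonucleotides released by NEIL1 cleavage and strand separation, reported as reduction of this enzyme activity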
- Sequence (Q96FI4 whole entry): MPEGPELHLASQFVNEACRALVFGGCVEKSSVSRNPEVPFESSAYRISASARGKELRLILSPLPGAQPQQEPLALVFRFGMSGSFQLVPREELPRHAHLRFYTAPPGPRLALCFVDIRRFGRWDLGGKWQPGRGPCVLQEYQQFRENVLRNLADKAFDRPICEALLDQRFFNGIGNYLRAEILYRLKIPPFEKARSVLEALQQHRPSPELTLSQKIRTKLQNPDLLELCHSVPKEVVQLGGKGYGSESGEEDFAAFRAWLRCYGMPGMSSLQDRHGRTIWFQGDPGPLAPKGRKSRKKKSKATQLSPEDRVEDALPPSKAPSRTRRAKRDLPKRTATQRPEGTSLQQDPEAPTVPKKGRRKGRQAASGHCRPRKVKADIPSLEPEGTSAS
- condition-description: Compound Concentration 10.0 uM, Hit No
- Description: Inhibition of NEIL1 by quantifying inhibition of NEIL1-mediated cleavage and dissociation of quenched duplex DNA oligonucleotides, measured as fluorescence at 594 nm.
metric: inhibition (%)
Field format: number, assumed %, no unit text.

compound	numeric-result
C=CC(=O)Nc1ccc2[nH]c(=O)n(C3CCN(C(=O)c4ccc(-c5nc6cc[nH]c(=O)c6cc5-c5ccccc5)cc4)CC3)c2c1	-0.919
Cc1cc([C@@H](C)Nc2cccc(-c3cc(C)c(C(=O)N[C@@H](C)C(=O)O)c(C)c3)c2)ccc1Cl	-0.204
C/N=C(/NC#N)NCCSCc1csc(NC(=N)N)n1	-6.13
Cn1c(C2(NC(=O)c3ccc4c(C5CCCC5)c(-c5ncc(Br)cn5)n(C)c4c3)CCC2)nc2ccc(/C=C/C(=O)O)cc21	12.4
CC(C)NCC(O)COc1cccc2[nH]ccc12 (stereo not given)	2.76
N[C@H](C(=O)O)c1ccc(C(=O)O)c(C(=O)O)c1	-4.06

[Q] Entry under review: COc1c(Nc2ccc(S(C)(=O)=O)nc2C)ncnc1OC1CCN(C(=O)OC(C)C)CC1 . Reported inhibition?
[A] -6.28

[Q] Entry under review: CC1(C)CCC(C)(C)c2cc(C(=O)Nc3ccc(C(=O)O)cc3)ccc21 . Reported inhibition?
[A] -3.17

[Q] Entry under review: CCCCCCCC/C=C\CCCCCCCC(N)=O . Reported inhibition?
[A] 12.4

[Q] Entry under review: CC(C)(C[C@H]1CN(S(=O)(=O)c2cccc(C(F)(F)F)c2)c2cc(-c3cc(F)cc(OC(F)F)c3)ccc2O1)C(=O)O . Reported inhibition?
[A] -6.65

Origin of the recorded values: ChEMBL document CHEMBL5665443
